# condition.notes: human
measurement.label: WHO database: cases of serotonin syndrome, only suspected cause
Please reply with the number alone, leaving off any unit.

{"columns": ["compound", "data.value"],
 "data": [
  ["COc1ccc2c3c1O[C@H]1C(=O)CC[C@H]4[C@@H](C2)N(C)CC[C@]314 [Hydrocodone]", 0],
  ["COc1ccc2c3c1O[C@H]1C(=O)CC[C@@]4(O)[C@@H](C2)N(C)CC[C@]314 [Oxycodone]", 2]
]}

Consider the compound COc1cccc(C2(O)CCCCC2CN(C)C)c1 (centres unmarked) [Tramadol] and give its measured WHO database: cases of serotonin syndrome, only suspected cause.
62

Consider the compound COc1ccc2c3c1O[C@H]1[C@@H](O)C=C[C@H]4[C@@H](C2)N(C)CC[C@@]341 [Codeine] and give its measured WHO database: cases of serotonin syndrome, only suspected cause.
0

Consider the compound CN1CC[C@]23c4c5ccc(O)c4O[C@H]2C(=O)CC[C@@]3(O)[C@H]1C5 [Oxymorphone] and give its measured WHO database: cases of serotonin syndrome, only suspected cause.
0
